Biological target: SERT (Homo sapiens, UniProt P31645)
Test: hSERT membrane radioligand binding assay (3H-citalopram)
Set-up: expressed in transfected cells; host or cells: HEK-293
Conditions: hSERT membranes (HEK-293), 1.0 nM 3H-citalopram; read-out: SERT pKi (converted)
Sequence (P31645 whole entry): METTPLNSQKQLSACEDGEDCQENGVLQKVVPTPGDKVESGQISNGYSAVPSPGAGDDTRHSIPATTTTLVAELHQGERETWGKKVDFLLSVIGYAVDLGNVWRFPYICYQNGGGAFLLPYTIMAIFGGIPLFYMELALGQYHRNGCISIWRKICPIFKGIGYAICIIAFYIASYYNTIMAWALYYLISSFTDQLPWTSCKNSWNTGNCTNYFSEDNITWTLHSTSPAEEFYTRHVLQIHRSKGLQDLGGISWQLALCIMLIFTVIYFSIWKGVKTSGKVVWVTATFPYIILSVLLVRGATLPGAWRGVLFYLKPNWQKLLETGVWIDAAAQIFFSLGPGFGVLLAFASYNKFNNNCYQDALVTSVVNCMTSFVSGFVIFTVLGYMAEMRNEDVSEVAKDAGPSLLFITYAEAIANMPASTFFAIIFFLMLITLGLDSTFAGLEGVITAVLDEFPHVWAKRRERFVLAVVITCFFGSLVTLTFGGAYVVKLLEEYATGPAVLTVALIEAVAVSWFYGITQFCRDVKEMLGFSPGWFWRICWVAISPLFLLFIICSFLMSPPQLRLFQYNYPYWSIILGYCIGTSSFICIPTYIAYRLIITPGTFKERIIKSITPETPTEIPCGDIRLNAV
Value Kind: Ki

// solved cases for Ki follow
[[record]]
compound = "COC[C@@H](Oc1cccc(Cl)c1Cl)[C@H]1CCNC1"
value_kind = "Ki"
result = "≤ 10 nM"

[[record]]
compound = "COCC(Oc1cccc(Cl)c1C(F)(F)F)C1CCNC1 (stereo not shown)"
value_kind = "Ki"
result = "≤ 10 nM"

[[record]]
compound = "FC(F)(F)c1cccc(O[C@H](C2CCOCC2)[C@@H]2CCNC2)c1"
value_kind = "Ki"
result = "≤ 100 nM"

[[record]]
compound = "COC[C@@H](Oc1ccc(Cl)cc1Cl)[C@H]1CCNC1"
value_kind = "Ki"
result = "≤ 10 nM"

[[record]]
compound = "FC(F)(F)c1cc(Cl)ccc1O[C@H](C1CCOCC1)[C@@H]1CCNC1"
value_kind = "Ki"
result = "≤ 10 nM"


Ask: GET /values?readout=Ki&item= `COC[C@@H](Oc1cccc(Cl)c1C(F)(F)F)[C@H]1CCNC1`
Reply: ≤ 10 nM

Ask: Which Ki value is on record for `Cc1c(Cl)cccc1O[C@@H](COC(C)C)[C@@H]1CCNC1` ?
Reply: ≤ 10 nM

Ask: What does the record list as Ki for `COC[C@H](Oc1cccc(Cl)c1C(F)(F)F)[C@H]1CCNC1` ?
Reply: ≤ 10 nM

###

Each entry below carries its recorded Ki.
Target: NET (Homo sapiens)
Experiment: hNET membrane radioligand binding assay (3H-nisoxetine)
Set-up: expressed in transfected cells; host or cells: HEK-293
Conditions: hNET membranes (HEK-293), 1.0 nM 3H-nisoxetine; read-out: NET pKi (converted)

[[record]]
compound = "COC[C@H](Oc1cccc(Cl)c1C(F)(F)F)[C@H]1CCNC1"
target_or_system = "NET (Homo sapiens)"
result = "≤ 10 nM"

[[record]]
compound = "FC(F)(F)c1cccc(O[C@H](C2CCOCC2)[C@@H]2CCNC2)c1"
target_or_system = "NET (Homo sapiens)"
result = "≤ 100 nM"

[[record]]
compound = "Clc1ccc(O[C@H](C2CCOCC2)[C@@H]2CCNC2)cc1"
target_or_system = "NET (Homo sapiens)"
result = "≤ 10 nM"

[[record]]
compound = "Fc1cccc(O[C@@H](C2CCOCC2)[C@@H]2CCNC2)c1"
target_or_system = "NET (Homo sapiens)"
result = "≤ 100 nM"


Ask: Item under review: `Clc1cc(Cl)cc(O[C@@H](C2CCOCC2)[C@@H]2CCNC2)c1` . Reported Ki?
Reply: ≤ 10 nM

Ask: Any idea what its Ki is? The compound is COCC(Oc1cc(Cl)cc(Cl)c1)C1CCNC1 (stereo not shown)
Reply: ≤ 100 nM

Ask: Need Ki, item COCCC(Oc1ccc(Cl)cc1C)C1CCNC1 (single isomer, unassigned) [5 (1st peak)]
Reply: ≤ 100 nM

###

Molecular target: SERT (Homo sapiens, UniProt P31645)
Test: fluorescence-based serotonin uptake assay (Tsuruda et al. 2010)
Assay type: cell-based
Conditions: serotonin reuptake inhibition, fluorescence-based assay (data indicated by an asterisk); read-out: SERT pIC50 (converted)
Sequence (P31645 whole entry, species assumed): as the sequence (P31645 whole entry) above
# IC50 per record follows

[[record]]
compound = "CC(C)OCC(Oc1cccc(Cl)c1C(F)(F)F)C1CCNC1 (centres unmarked)"
target_or_system = "SERT (Homo sapiens, UniProt P31645)"
value_kind = "IC50"
result = "≤ 100 nM"

[[record]]
compound = "CCOC[C@H](Oc1ccc(Cl)c(Cl)c1)[C@H]1CCNC1"
target_or_system = "SERT (Homo sapiens, UniProt P31645)"
value_kind = "IC50"
result = "≤ 10 nM"

[[record]]
compound = "CCOC[C@H](Oc1ccccc1Cl)[C@H]1CCNC1"
target_or_system = "SERT (Homo sapiens, UniProt P31645)"
value_kind = "IC50"
result = "≤ 100 nM"

[[record]]
compound = "CSC[C@H](Oc1ccc(Cl)cc1C)[C@H]1CCNC1"
target_or_system = "SERT (Homo sapiens, UniProt P31645)"
value_kind = "IC50"
result = "≤ 10 nM"

[[record]]
compound = "CCOC[C@@H](Oc1cccc(Cl)c1C)[C@H]1CCNC1"
target_or_system = "SERT (Homo sapiens, UniProt P31645)"
value_kind = "IC50"
result = "≤ 10 nM"

[[record]]
compound = "CC(C)SC[C@H](Oc1cccc(Cl)c1Cl)[C@H]1CCNC1"
target_or_system = "SERT (Homo sapiens, UniProt P31645)"
value_kind = "IC50"
result = "≤ 10 nM"


Ask: What value of IC50 has been recorded for this entry: `CCSC[C@H](Oc1cccc(Cl)c1C(F)(F)F)[C@H]1CCNC1`
Reply: ≤ 10 nM

Ask: # lookup: IC50 of Cc1c(Cl)cccc1OC(COCc1ccccc1)C1CCNC1 (centres unmarked)
Reply: ≤ 10 nM

Ask: Given `CC(C)SC[C@@H](Oc1cccc(Cl)c1C(F)(F)F)[C@H]1CCNC1` , state its recorded IC50.
Reply: ≤ 10 nM

Ask: Using the record for `CC(C)OC[C@H](Oc1c(Cl)cccc1Cl)[C@@H]1CCNC1` , report its IC50.
Reply: ≤ 1000 nM

Ask: Dear colleague, I am looking for the recorded IC50 of the following compound: `CC(C)OC[C@@H](Oc1cccc(F)c1Cl)[C@H]1CCNC1`
Reply: ≤ 10 nM

Ask: Please give the measured IC50 for this compound: `CC(C)OC[C@@H](Oc1cccc(C(F)(F)F)c1)[C@H]1CCNC1`
Reply: ≤ 10 nM

Ask: GET /values?readout=IC50&item= `CC(C)OC[C@H](Oc1cccc(F)c1Cl)[C@H]1CCNC1`
Reply: ≤ 10 nM

###

Target: NET (Homo sapiens)
Assay: hNET membrane radioligand binding assay (3H-nisoxetine)
Design: expressed in transfected cells; host or cells: HEK-293
Conditions: hNET membranes (HEK-293), 1.0 nM 3H-nisoxetine; read-out: NET pKi (converted)
Value Kind: Ki

Guide cases for Ki, answers given:
[[record]]
compound = "CC(C)OC[C@H](Oc1cccc(C(F)(F)F)c1)[C@@H]1CCNC1 [Example 9-2]"
result = "≤ 10000 nM"

[[record]]
compound = "CSCCC(Oc1cccc(Cl)c1Cl)C1CCNC1 (mixture of isomers) [Example 20]"
result = "≤ 10 nM"

[[record]]
compound = "COC[C@@H](Oc1ccc(Cl)cc1Cl)[C@H]1CCNC1 [Example 4-23]"
result = "≤ 100 nM"

[[record]]
compound = "COCC(Oc1ccccc1Cl)C1CCNC1 (single isomer, unassigned) [Example 4-1]"
result = "≤ 100 nM"


Ask: Could you share what Ki was measured for CC(C)OC[C@H](Oc1c(Cl)cccc1Cl)[C@@H]1CCNC1 [Example 9-27] , tested on NET (Homo sapiens)?
Reply: ≤ 1000 nM

###

Biological target: NET (Homo sapiens, UniProt P23975)
Sequence (P23975 whole entry): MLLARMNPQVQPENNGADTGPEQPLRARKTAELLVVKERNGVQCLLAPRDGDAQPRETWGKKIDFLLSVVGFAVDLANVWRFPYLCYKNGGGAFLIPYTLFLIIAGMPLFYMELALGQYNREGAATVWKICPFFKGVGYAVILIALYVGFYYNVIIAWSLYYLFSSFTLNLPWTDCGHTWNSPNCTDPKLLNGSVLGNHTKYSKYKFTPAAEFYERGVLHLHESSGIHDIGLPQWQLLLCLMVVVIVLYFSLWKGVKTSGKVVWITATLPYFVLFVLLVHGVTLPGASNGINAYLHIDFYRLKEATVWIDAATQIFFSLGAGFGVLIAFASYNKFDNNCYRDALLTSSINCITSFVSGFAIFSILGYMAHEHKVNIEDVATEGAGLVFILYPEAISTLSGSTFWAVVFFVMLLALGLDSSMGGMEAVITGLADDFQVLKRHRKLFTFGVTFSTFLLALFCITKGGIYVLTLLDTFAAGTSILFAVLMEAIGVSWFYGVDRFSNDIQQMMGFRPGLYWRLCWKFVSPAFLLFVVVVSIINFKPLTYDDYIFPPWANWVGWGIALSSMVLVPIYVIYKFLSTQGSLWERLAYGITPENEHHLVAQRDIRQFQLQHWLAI
Test: hNET membrane radioligand binding assay (3H-nisoxetine)
Design: expressed in transfected cells; host or cells: HEK-293
Conditions: hNET membranes (HEK-293), 1.0 nM 3H-nisoxetine; read-out: NET pKi (converted)
Ki by entry:

Guide cases for Ki, answers given:
[[record]]
smiles_str = "Clc1cc(Cl)cc(O[C@@H](C2CCOCC2)[C@H]2CCNC2)c1"
value_kind = "Ki"
result = "≤ 100 nM"

[[record]]
smiles_str = "Clc1cccc(O[C@H](C2CCOCC2)[C@@H]2CCNC2)c1Cl"
value_kind = "Ki"
result = "≤ 10 nM"

[[record]]
smiles_str = "FC(F)(F)c1c(Cl)cccc1O[C@H](C1CCOCC1)[C@H]1CCNC1"
value_kind = "Ki"
result = "≤ 100 nM"

[[record]]
smiles_str = "COC[C@H](Oc1c(Cl)cccc1Cl)[C@H]1CCNC1"
value_kind = "Ki"
result = "≤ 10 nM"

[[record]]
smiles_str = "COC[C@@H](Oc1cccc(Cl)c1C)[C@H]1CCNC1"
value_kind = "Ki"
result = "≤ 10 nM"


Ask: Request: Ki, test system NET (Homo sapiens, UniProt P23975), entry `Clc1ccccc1O[C@H](C1CCOCC1)[C@@H]1CCNC1`
Reply: ≤ 10 nM

Ask: # get_value(readout= Ki, system= NET (Homo sapiens, UniProt P23975)) for `Fc1cccc(O[C@H](C2CCOCC2)[C@H]2CCNC2)c1Cl`
Reply: ≤ 10 nM

Ask: What measured Ki is associated with `Fc1ccc(O[C@H](C2CCOCC2)[C@@H]2CCNC2)cc1` on NET (Homo sapiens, UniProt P23975)?
Reply: ≤ 100 nM

Ask: Record `Clc1cccc(Cl)c1O[C@H](C1CCOCC1)[C@H]1CCNC1` : what is its Ki with NET (Homo sapiens, UniProt P23975)?
Reply: ≤ 100 nM
